These entries and their values trace back to patent US20260374766A1.

# Experimental System: p53 Y220C (Homo sapiens, UniProt P04637, Y220C)
# Assay Remarks: Luciferase Reporter Assay (Luc), p53 response element, NClH1299 cells with inducible p53 Y220C
# Format: cell-based
# Protocol Conditions: Emax; luciferase reporter, NClH1299 inducible p53 Y220C, 6 hour
Measured Quantity: Emax

Some compounds with known Emax results, for comparison:
compound="CNC(=O)c1ccc(NCC#Cc2nc3c(N[C@@H]4C[C@@H]5COC[C@H]([C@@H]4F)N5C)cccn3c2SC(F)(F)F)c(OC)c1 [Example 283]" experimental_system="p53 Y220C (Homo sapiens, UniProt P04637, Y220C)" measured_quantity=Emax result="80 to 90%"
compound="CCNC(=O)c1ccc(NCC#Cc2nn3c(N[C@@H]4CCN(C)C[C@@H]4F)cccc3c2SC(F)(F)F)c(OC)c1 [Example 316]" experimental_system="p53 Y220C (Homo sapiens, UniProt P04637, Y220C)" measured_quantity=Emax result="> 90%"
compound="CNC(=O)c1ccc(NCC#Cc2cc3c(N[C@@H]4CCN(C)C[C@@H]4F)cccn3c2SC(F)(F)F)c(O[C@H]2C[C@H](O)C2)c1 [Example 398]" experimental_system="p53 Y220C (Homo sapiens, UniProt P04637, Y220C)" measured_quantity=Emax result="80 to 90%"

Fill in: p53 Y220C (Homo sapiens, UniProt P04637, Y220C) Emax for COc1cc(C(N)=O)ccc1NCC#Cc1cc2c(N[C@@H]3CCN(C)C[C@@H]3F)nccn2c1SC(F)(F)F [Example 299] = > 90%

Fill in: p53 Y220C (Homo sapiens, UniProt P04637, Y220C) Emax for CN1CC[C@@H](Nc2cccn3c(SC(F)(F)F)c(C#CCNc4ccc(S(C)(=O)=O)cc4)cc23)[C@@H](F)C1 [Example 418] = > 90%

Fill in: p53 Y220C (Homo sapiens, UniProt P04637, Y220C) Emax for C[C@H](NC(=O)c1ccc(NCC#Cc2cc3c(N[C@@H]4CCN(C)C[C@@H]4F)cccn3c2SC(F)(F)F)cc1)[C@@H](C)O [Example 396] = > 90%

Fill in: p53 Y220C (Homo sapiens, UniProt P04637, Y220C) Emax for CNC(=O)c1ccc(OC)c(NCC#Cc2cc3c(N[C@@H]4CCNC[C@@H]4F)nccn3c2SC(F)(F)F)c1 [Example 289] = > 90%
